Kindly state inhibition at 100 µM for each of the entries shown.
molecular target: FmlHLD (Escherichia coli, UniProt P77588); construct: 6xHis (C); made in house; host or cells: E. coli C600, periplasm, pTRC99a; experiment: biochemical; type: binding, E. coli; conditions: read-out: % Inhibition at [μM] [100], compound at 100 μM; inhibition of FmlHLD binding to ds-BSM
Sequence (P77588 25-182): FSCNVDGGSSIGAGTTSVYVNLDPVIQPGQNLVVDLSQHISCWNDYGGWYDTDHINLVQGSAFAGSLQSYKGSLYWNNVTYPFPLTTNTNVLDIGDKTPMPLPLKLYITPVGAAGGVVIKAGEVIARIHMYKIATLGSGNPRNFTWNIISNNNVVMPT
Answer in %, number only, no unit symbol.

Short answer for CC(C)S[C@@H]1O[C@H](CO)[C@H](O)[C@H](O)[C@H]1O [IPTG, isopropyl β-thiogalactoside, reference compound] : inhibition at 100 µM was 23.7

The compound OC[C@H]1O[C@@H](Oc2cc3c(O)cc(O)cc3[o+]c2-c2ccc(O)c(O)c2)[C@H](O)[C@@H](O)[C@H]1O [CG, reference compound] showed inhibition at 100 µM equal to 28.8

# compound OC[C@H]1O[C@@H](Oc2cccc(-c3ccccc3)c2)[C@H](O)[C@@H](O)[C@H]1O ; its inhibition at 100 µM = 56.9

Reported inhibition at 100 µM of O=c1c(O[C@@H]2O[C@H](CO)[C@H](O)[C@H](O)[C@H]2O)c(-c2ccc(O)c(O)c2)oc2cc(O)cc(O)c12 [QG, reference compound] : 14.4

Reported inhibition at 100 µM ( N#Cc1ccccc1O[C@H]1O[C@H](CO)[C@H](O)[C@H](O)[C@H]1O [Compound 137a] ) = 17.8

Summary for this compound, COc1ccccc1O[C@@H]1O[C@H](CO)[C@H](O)[C@H](O)[C@H]1O [Compound 149e] : inhibition at 100 µM is 97.2

inhibition at 100 µM recorded for this compound, Cc1ccccc1O[C@H]1O[C@H](CO)[C@H](O)[C@H](O)[C@H]1O [Compound 135a] , is 30
